- measurement_description: chemical genetic growth profiling, strain panel (AID 1159580);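 note: tested at 20 µM; growth read once vehicle control cultures reached saturation at 30 °C; 1 = growth at the plate median or of vehicle wells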
- experimental_setup: S. cerevisiae deletion strains, growth OD, locus YBR160W, strain CDC28, stronger effect = lower value
Screen size: about 5,500 compounds; about 2,000 (36%) were called active. About 18% were inconclusive and are not listed. This is one part of the list.
Kindly state normalized growth for each of the entries shown.
# answer = number (no unit)

[ask] Which value of normalized growth has been reported for FC(F)(F)c1cccc(NC(=S)Nc2csc(C(F)(F)F)c2-c2ccccc2)c1 in the records?
[reply] 0.988

[ask] Which value of normalized growth has been reported for Cc1cc(Br)ccc1-n1c(Sc2c([N+](=O)[O-])cc(C(F)(F)F)cc2[N+](=O)[O-])nc2ccccc2c1=O in the records?
[reply] 0.988

[ask] Which value of normalized growth has been reported for C=CCOc1ccc(/C=C/[N+](=O)[O-])cc1 in the records?
[reply] 0.0851

[ask] Which value of normalized growth has been reported for O=[N+]([O-])/C=C/c1ccc(F)cc1 in the records?
[reply] 0.091

[ask] Which value of normalized growth has been reported for CCCc1c(C(=O)NC2Cc3ccccc3C2)cnn1-c1ccccc1 in the records?
[reply] 0.99

[ask] Which value of normalized growth has been reported for Cc1nn(Cc2ccc(C(=O)Sc3ccc(C(F)(F)F)cn3)o2)c(C)c1Br in the records?
[reply] 0.967

[ask] Which value of normalized growth has been reported for O=[N+]([O-])c1ccccc1CS(=O)(=O)c1nc2ccccc2s1 in the records?
[reply] 0.886

[ask] Which value of normalized growth has been reported for O=C(NC(=O)c1c(F)cccc1Cl)OCc1ccc(Cl)cc1Cl in the records?
[reply] 0.976

[ask] Which value of normalized growth has been reported for N#CC(C#N)=C/C=C(/Sc1ccc(F)c(Cl)c1)c1ccc(Cl)cc1 in the records?
[reply] 0.958

[ask] Which value of normalized growth has been reported for FC(F)(F)c1cccc(NC(=S)Nc2ccccc2)c1 in the records?
[reply] 0.981

[ask] Which value of normalized growth has been reported for CCOC(=O)/C(=N/Nc1c(Cl)cccc1Cl)c1csc(N)n1 in the records?
[reply] 0.984

----------
- measurement_description: chemical genetic growth profiling, strain panel (AID 1159580);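 note: tested at 20 µM; growth read once vehicle control cultures reached saturation at 30 °C; 1 = growth at the plate median or of vehicle wells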
- experimental_setup: S. cerevisiae deletion strains, growth OD, locus YJR066W, strain TOR1, stronger effect = lower value
The whole screen tested about 5,500 compounds, of which about 2,000 (36%) were called active. Another 18% or so got no clear call; they are omitted. This is one part of the list.
measurement_label: normalized growth

[ask] Which value of normalized growth has been reported for CC(C)=CCC[C@](C)(O)C1CC=C(C)CC1 (stereo not given in full) in the records?
[reply] 0.953 (inactive)

[ask] Which value of normalized growth has been reported for O=C(NCCSCc1cccc(C(F)(F)F)c1)Nc1cccc(C(F)(F)F)c1 in the records?
[reply] 1.21 (inactive)

[ask] Which value of normalized growth has been reported for CC(C)=CCC/C(C)=C/CC/C(C)=C/CC/C(C)=C/CO in the records?
[reply] 0.944 (inactive)

[ask] Which value of normalized growth has been reported for CC(C)=CCC/C(C)=C/CC/C(C)=C/CC/C(C)=C/CC/C(C)=C/CC/C(C)=C/CC/C(C)=C/CC/C(C)=C/CC/C(C)=C/CO in the records?
[reply] 0.975 (inactive)

[ask] Which value of normalized growth has been reported for O=C(NCCSCc1cccc(C(F)(F)F)c1)c1ccc(Cl)cc1 in the records?
[reply] 0.769 (inactive)

----------
- measurement_description: chemical genetic growth profiling, strain panel (AID 1159580);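 note: tested at 20 µM; growth read once vehicle control cultures reached saturation at 30 °C; 1 = growth at the plate median or of vehicle wells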
- experimental_setup: S. cerevisiae deletion strains, growth OD, locus YGL248W, strain PDE1
Screen size: about 5,500 compounds; about 2,000 (36%) were called active. Inconclusive results (about 18%) are left out. No stated cut-off is given here; in the data, active means normalized growth mostly below about 0.91 (no sharp cut-off); inconclusive means no clear call, values can overlap the other calls; inactive means mostly above about 0.92. The list shows a part of the results.
The reply should name one outcome from T (active), F (inactive)

[ask] GET /call?item= C=CC(C1=CC(=O)C(OC)=CC1=O)c1ccc(OC)cc1 (configuration not stated) returns the recorded outcome of this test.
[reply] F

[ask] GET /call?item= CCN(CC)CCOc1ccc(/C(=C(\Cl)c2ccccc2)c2ccccc2)cc1 returns the recorded outcome of this test.
[reply] T

[ask] GET /call?item= NCCNC(=O)c1ccc(Cl)cc1 returns the recorded outcome of this test.
[reply] F

[ask] GET /call?item= COc1cc(C(=O)NCc2ccc(OCCN(C)C)cc2)cc(OC)c1OC returns the recorded outcome of this test.
[reply] F

[ask] GET /call?item= CN(C)CCOC(C)(c1ccccc1)c1ccccn1 (configuration not stated) returns the recorded outcome of this test.
[reply] F

[ask] GET /call?item= CC/C(=C(\c1ccccc1)c1ccc(OCCN(C)C)cc1)c1ccccc1 returns the recorded outcome of this test.
[reply] T

[ask] GET /call?item= O=C(O)CCC(=O)C(=O)O returns the recorded outcome of this test.
[reply] F

[ask] GET /call?item= COC(C)(C)CCC[C@H](C)C/C=C/C(C)=C/C(=O)OC(C)C returns the recorded outcome of this test.
[reply] F

[ask] GET /call?item= CC(C)N(C(=O)SCC(Cl)=C(Cl)Cl)C(C)C returns the recorded outcome of this test.
[reply] F

[ask] GET /call?item= Nc1ccc(C(=O)NCC(=O)O)cc1 returns the recorded outcome of this test.
[reply] F

[ask] GET /call?item= CN/C(=C\[N+](=O)[O-])NCCSCc1ccc(CN(C)C)o1 returns the recorded outcome of this test.
[reply] F

[ask] GET /call?item= C=CC(C1=CC(=O)C=CC1=O)c1ccccc1 (configuration not stated) returns the recorded outcome of this test.
[reply] F

[ask] GET /call?item= C=C[C@@H](C1=CC(=O)C(OC)=C(OC)C1=O)c1ccccc1 returns the recorded outcome of this test.
[reply] T

[ask] GET /call?item= COc1ccccc1OCCNCC(O)COc1cccc2[nH]c3ccccc3c12 (configuration not stated) returns the recorded outcome of this test.
[reply] F

[ask] GET /call?item= COC(=O)Oc1ccccc1C(=O)O returns the recorded outcome of this test.
[reply] F

[ask] GET /call?item= C[C@H]1[C@H]2CCC3C4CC=C5C[C@@H](N(C)C)CC[C@]5(C)C4CC[C@@]32CN1C (some centres not stated) returns the recorded outcome of this test.
[reply] F

[ask] GET /call?item= CO[C@H]1/C=C/O[C@@]2(C)Oc3c(C)c(O)c4c(O)c(c(/C=N/N5CCN(C)CC5)c(O)c4c3C2=O)NC(=O)/C(C)=C\C=C\C(C)[C@H](O)[C@@H](C)[C@@H](O)[C@@H](C)[C@@H](OC(C)=O)[C@@H]1C (some centres not stated) returns the recorded outcome of this test.
[reply] F

[ask] GET /call?item= O=C(OC1Cc2c(O)cc(O)cc2OC1c1cc(O)c(O)c(O)c1-c1c(C2Oc3cc(O)cc(O)c3CC2OC(=O)c2cc(O)c(O)c(O)c2)cc(O)c(O)c1O)c1cc(O)c(O)c(O)c1 (configuration not stated) returns the recorded outcome of this test.
[reply] F

[ask] GET /call?item= CCN(CC)CCNC(=O)c1cc(S(C)(=O)=O)ccc1OC returns the recorded outcome of this test.
[reply] F

[ask] GET /call?item= CNc1ccccc1C(=O)O returns the recorded outcome of this test.
[reply] F

[ask] GET /call?item= COc1cc2c(c(OC)c1OC)-c1ccc(O)c(=O)cc1[C@@H](NC(C)=O)CC2 returns the recorded outcome of this test.
[reply] T

[ask] GET /call?item= C=C(CC)C(=O)c1ccc(OCC(=O)O)c(Cl)c1Cl returns the recorded outcome of this test.
[reply] F

----------
- measurement_description: chemical genetic growth profiling, strain panel (AID 1159580);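 note: tested at 20 µM; growth read once vehicle control cultures reached saturation at 30 °C; 1 = growth at the plate median or of vehicle wells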
- experimental_setup: S. cerevisiae deletion strains, growth OD, locus YPR135W, strain CTF4, stronger effect = lower value
The campaign covered roughly 5,500 compounds. About 2,000 (36%) were called active. Another 18% or so got no clear call; they are omitted. The list shows a part of the results.
Kindly state normalized growth for each of the entries shown.
# answer = number (no unit)

[ask] Which value of normalized growth has been reported for COC(=O)c1ccc(-c2ccc(Cl)cc2)s1 in the records?
[reply] 0.597

[ask] Which value of normalized growth has been reported for CCSc1sc(C(=O)OC)c(-c2ccc(Cl)cc2)c1C#N in the records?
[reply] 1.01

[ask] Which value of normalized growth has been reported for CCOc1ccc(/C=C(\C)[N+](=O)[O-])cc1OC in the records?
[reply] 0.233

[ask] Which value of normalized growth has been reported for Fc1cccc(Cl)c1CSc1nncn1-c1ccc(OCc2ccccc2)cc1 in the records?
[reply] 0.832

[ask] Which value of normalized growth has been reported for COc1cccc(C2C3=C(CC(C)(C)CC3=O)OC3=C2C(=O)CC(C)(C)C3)c1O in the records?
[reply] 0.976

[ask] Which value of normalized growth has been reported for CSC1=NCN(Cc2ccccc2)CN1 in the records?
[reply] 1.1

[ask] Which value of normalized growth has been reported for CN(/N=C\c1ccccc1)c1ncc(C(F)(F)F)cc1Cl in the records?
[reply] 0.907

[ask] Which value of normalized growth has been reported for COc1ccc(NS(=O)(=O)c2c(C)noc2C)cc1 in the records?
[reply] 1.02

[ask] Which value of normalized growth has been reported for CC1C(c2ccccc2)OCCN1CN1C(=O)c2ccccc2C1=O (configuration not stated) in the records?
[reply] 1.06

[ask] Which value of normalized growth has been reported for CSc1ccc(/C=C/[N+](=O)[O-])cc1 in the records?
[reply] 0.202

[ask] Which value of normalized growth has been reported for O=C(NNC(=S)Nc1ccc(F)cc1)c1ccccc1Cl in the records?
[reply] 0.982

[ask] Which value of normalized growth has been reported for Cc1c(Cl)cccc1NC(=S)Nc1ccc(Cl)cc1C(=O)c1ccccc1 in the records?
[reply] 0.956
